B1: library; numbered along this chain (parent)
chain: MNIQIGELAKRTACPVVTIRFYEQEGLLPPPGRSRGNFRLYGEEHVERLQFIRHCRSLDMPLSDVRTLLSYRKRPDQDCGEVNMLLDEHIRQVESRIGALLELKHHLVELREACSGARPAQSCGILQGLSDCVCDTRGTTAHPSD

- Variants of: B1
- ASSAY: sfGFP reporter fluorescence (15 h) (µM FITC); higher = stronger transcriptional activation
- EXPERIMENTAL PARAMETERS: library round: Round 1; ligand: 30 µM Zn
Exercise: for every item that follows, state its recorded sfGFP reporter fluorescence.
Give bare numbers.

MUTATION NOTATION	REPORTED ENDPOINT	MEASURED NUMBER
V108L C114L	sfGFP reporter fluorescence	0.0589
G128L C134E	sfGFP reporter fluorescence	1.36
N83M D135A	sfGFP reporter fluorescence	0.07
P61L K104V	sfGFP reporter fluorescence	0.0765
P30A V46R	sfGFP reporter fluorescence	0.298
P61N L62I	sfGFP reporter fluorescence	0.379

For each listed entry, give its sfGFP reporter fluorescence.
1. N83T L107C G128M D135A
2. D64I R111L
3. D64K R111A

# output
1. 2.06
2. 1.39
3. 1.83
